system: rats subjected to adrenalectomy (granuloma around implanted cotton wads); assay: granulom test (cotton-pellet test) on rats subjected to adrenalectomy: granuloma growth, thymus weight, body weight increase; assay type: in vivo, rat (Sprague-Dawley); conditions: Table 3; adrenalectomized young male Sprague-Dawley rats, topical in implanted cotton wads, day 8
Reported Dose required to obtain 50% inhibition of Granuloma growth is given for each of the following compounds.

# compound, assayedTarget, result
rows = [
    ("CCCCC1OC2CC3C4CCC5=CC(=O)C=CC5(C)C4(F)C(O)CC3(C)C2(C(=O)CO)O1 (mixture of isomers) [4 A+B]", "rats subjected to adrenalectomy (granuloma around implanted cotton wads)", "< 3 γ/animal"),
    ("CCCC1O[C@@H]2C[C@H]3[C@@H]4CCC5=CC(=O)C=C[C@]5(C)[C@H]4[C@@H](O)C[C@]3(C)[C@]2(C(=O)CO)O1 (single isomer, unassigned) [12 A]", "rats subjected to adrenalectomy (granuloma around implanted cotton wads)", "125 γ/animal"),
    ("CCCCCC1OC2CC3C4CCC5=CC(=O)C=CC5(C)C4(F)C(O)CC3(C)C2(C(=O)CO)O1 (mixture of isomers) [5 A+B]", "rats subjected to adrenalectomy (granuloma around implanted cotton wads)", "17 γ/animal"),
]

-- ask What does the data say about its Dose required to obtain 50% inhibition of Granuloma growth? Entry: CC1O[C@@H]2C[C@H]3[C@@H]4CCC5=CC(=O)C=C[C@]5(C)[C@@]4(F)[C@@H](O)C[C@]3(C)[C@]2(C(=O)CO)O1 (single isomer, unassigned) [1 A]
-- reply 270 γ/animal

-- ask What does the data say about its Dose required to obtain 50% inhibition of Granuloma growth? Entry: CCCC1O[C@@H]2C[C@H]3[C@@H]4CCC5=CC(=O)C=C[C@]5(C)[C@H]4[C@@H](O)C[C@]3(C)[C@]2(C(=O)COC(C)=O)O1 (single isomer, unassigned) [27 B]
-- reply < 3 γ/animal

-- ask What does the data say about its Dose required to obtain 50% inhibition of Granuloma growth? Entry: CCCCC(=O)OCC(=O)C12OC(CCC)OC1CC1C3CCC4=CC(=O)C=CC4(C)C3(F)C(O)CC12C (mixture of isomers) [22 A+B]
-- reply 10 γ/animal

-- ask What does the data say about its Dose required to obtain 50% inhibition of Granuloma growth? Entry: CCCCCC1O[C@@H]2C[C@H]3[C@@H]4CCC5=CC(=O)C=C[C@]5(C)[C@H]4[C@@H](O)C[C@]3(C)[C@]2(C(=O)CO)O1 (single isomer, unassigned) [13 A]
-- reply 8 γ/animal

-- ask What does the data say about its Dose required to obtain 50% inhibition of Granuloma growth? Entry: CCCCC(=O)OCC(=O)[C@@]12OC(C)O[C@@H]1C[C@H]1[C@@H]3CCC4=CC(=O)C=C[C@]4(C)[C@@]3(F)[C@@H](O)C[C@@]12C (single isomer, unassigned) [18 B]
-- reply < 3 γ/animal

-- ask What does the data say about its Dose required to obtain 50% inhibition of Granuloma growth? Entry: CCCCCC1O[C@@H]2C[C@H]3[C@@H]4CCC5=CC(=O)C=C[C@]5(C)[C@@]4(F)[C@@H](O)C[C@]3(C)[C@]2(C(=O)CO)O1 (single isomer, unassigned) [5 B]
-- reply 10 γ/animal

-- ask What does the data say about its Dose required to obtain 50% inhibition of Granuloma growth? Entry: CCCC1O[C@@H]2C[C@H]3[C@@H]4C[C@H](F)C5=CC(=O)C=C[C@]5(C)[C@@]4(F)[C@@H](O)C[C@]3(C)[C@]2(C(=O)CO)O1 (single isomer, unassigned) [8 A]
-- reply 6 γ/animal

-- ask What does the data say about its Dose required to obtain 50% inhibition of Granuloma growth? Entry: CCCC1O[C@@H]2C[C@H]3[C@@H]4CCC5=CC(=O)C=C[C@]5(C)[C@@]4(F)[C@@H](O)C[C@]3(C)[C@]2(C(=O)COC(=O)c2cccnc2)O1 (single isomer, unassigned) [21 B]
-- reply < 3 γ/animal

-- ask What does the data say about its Dose required to obtain 50% inhibition of Granuloma growth? Entry: CC1O[C@@H]2C[C@H]3[C@@H]4CCC5=CC(=O)C=C[C@]5(C)[C@@]4(F)[C@@H](O)C[C@]3(C)[C@]2(C(=O)COC(=O)c2cccnc2)O1 (single isomer, unassigned) [17 B]
-- reply 3 γ/animal

-- ask What does the data say about its Dose required to obtain 50% inhibition of Granuloma growth? Entry: CCCC1OC2CC3C4CCC5=CC(=O)C=CC5(C)C4C(O)CC3(C)C2(C(=O)COC(C)=O)O1 (mixture of isomers) [27 A+B]
-- reply < 3 γ/animal

-- ask What does the data say about its Dose required to obtain 50% inhibition of Granuloma growth? Entry: CCCC1OC2CC3C4CCC5=CC(=O)C=CC5(C)C4(F)C(O)CC3(C)C2(C(=O)COC(=O)c2cccnc2)O1 (mixture of isomers) [21 A+B]
-- reply 7 γ/animal

-- ask What does the data say about its Dose required to obtain 50% inhibition of Granuloma growth? Entry: CCCC1OC2CC3C4CC(F)C5=CC(=O)C=CC5(C)C4(F)C(O)CC3(C)C2(C(=O)CO)O1 (mixture of isomers) [8 A+B]
-- reply 5 γ/animal

-- ask What does the data say about its Dose required to obtain 50% inhibition of Granuloma growth? Entry: CCC1O[C@@H]2C[C@H]3[C@@H]4CCC5=CC(=O)C=C[C@]5(C)[C@@]4(F)[C@@H](O)C[C@]3(C)[C@]2(C(=O)CO)O1 (single isomer, unassigned) [2 A]
-- reply 25 γ/animal

-- ask What does the data say about its Dose required to obtain 50% inhibition of Granuloma growth? Entry: CCCC1OC2CC3C4CC(F)C5=CC(=O)C=CC5(C)C4(F)C(O)CC3(C)C2(C(=O)COC(=O)c2cc3ccccc3o2)O1 (mixture of isomers) [25 A+B]
-- reply < 3 γ/animal

-- ask What does the data say about its Dose required to obtain 50% inhibition of Granuloma growth? Entry: CCCC1O[C@@H]2C[C@H]3[C@@H]4CCC5=CC(=O)C=C[C@]5(C)[C@@]4(F)[C@@H](O)C[C@]3(C)[C@]2(C(=O)CO)O1 (single isomer, unassigned) [3 A]
-- reply 25 γ/animal

----------
Test system: rats subjected to adrenalectomy (granuloma around implanted cotton wads)
Assay: granulom test (cotton-pellet test) on rats subjected to adrenalectomy: granuloma growth, thymus weight, body weight increase
Format: in vivo, rat (Sprague-Dawley)
Details: Table 3; adrenalectomized young male Sprague-Dawley rats, topical in implanted cotton wads, day 8
Text: In the following this active stereoisomeric component will always be designated B. As regards the steroids referred to in connection with the present invention the stereoisomeric mixture as well as the individual stereoisomeric components A and B have been investigated with regard to antiinflammatory activity in granulom test on rats subjected to adrenalectomy. The experimental procedure used corresponds largely to that described by G. Engelhardt: Arzneimittel-Forschung, 13, p. 588, 1963. […]
measurementLabel: Dose required to obtain 50% inhibition of Granuloma growth

# compound, result
measured = [
    ("CCCC1O[C@@H]2C[C@H]3[C@@H]4CCC5=CC(=O)C=C[C@]5(C)[C@@]4(F)[C@@H](O)C[C@]3(C)[C@]2(C(=O)CO)O1 (single isomer, unassigned) [3 B]", "3 γ/animal"),
    ("CCCC1OC2CC3C4CCC5=CC(=O)C=CC5(C)C4(F)C(O)CC3(C)C2(C(=O)CO)O1 (mixture of isomers) [3 A+B]", "10 γ/animal"),
]

Now, please, on to the next compound.
-- ask What reported Dose required to obtain 50% inhibition of Granuloma growth corresponds to CC1O[C@@H]2C[C@H]3[C@@H]4C[C@H](F)C5=CC(=O)C=C[C@]5(C)[C@@]4(F)[C@@H](O)C[C@]3(C)[C@]2(C(=O)CO)O1 (single isomer, unassigned) [7 A] on rats subjected to adrenalectomy (granuloma around implanted cotton wads)?
-- reply 15 γ/animal

----------
tested on: rats subjected to adrenalectomy (granuloma around implanted cotton wads); assay: granulom test (cotton-pellet test) on rats subjected to adrenalectomy: granuloma growth, thymus weight, body weight increase; assay type: in vivo, rat (Sprague-Dawley); details: Table 4; ED25 body weight increase inhibition over ED50 granuloma formation inhibition
Reported Therapeutic ratio body weight/granuloma is given for each of the following molecules.

Please review the entries below; each comes with its answer.
# molecule, assayedTarget, Therapeutic ratio body weight/granuloma
data = [
    ("CC1O[C@@H]2C[C@H]3[C@@H]4C[C@H](F)C5=CC(=O)C=C[C@]5(C)[C@@]4(F)[C@@H](O)C[C@]3(C)[C@]2(C(=O)COC(=O)c2cc3ccccc3o2)O1 (stereo partly shown) [23 A]", "rats subjected to adrenalectomy (granuloma around implanted cotton wads)", "> 3.3"),
    ("CC1O[C@@H]2C[C@H]3[C@@H]4CCC5=CC(=O)C=C[C@]5(C)[C@@]4(F)[C@@H](O)C[C@]3(C)[C@]2(C(=O)COC(=O)c2cc3ccccc3o2)O1 (stereo partly shown) [16 B]", "rats subjected to adrenalectomy (granuloma around implanted cotton wads)", 3.3),
    ("CC1O[C@@H]2C[C@H]3[C@@H]4C[C@H](F)C5=CC(=O)C=C[C@]5(C)[C@@]4(F)[C@@H](O)C[C@]3(C)[C@]2(C(=O)COC(=O)c2cc3ccccc3o2)O1 (stereo partly shown) [23 B]", "rats subjected to adrenalectomy (granuloma around implanted cotton wads)", "> 1.0"),
]

Now, please, on to the next molecule.
-- ask What does the data say about its Therapeutic ratio body weight/granuloma? Entry: CC1O[C@@H]2C[C@H]3[C@@H]4CCC5=CC(=O)C=C[C@]5(C)[C@@]4(F)[C@@H](O)C[C@]3(C)[C@]2(C(=O)COC(=O)c2cc3ccccc3o2)O1 (stereo partly shown) [16 A]
-- reply > 9.0

From: patent US3996359A
